Kindly supply the reported RP-LC retention time values for the records listed here.
- experiment-notes: gradient 5% acetonitrile 3 min, to 50% in 2 min, to 85% in 15 min, held 3 min, 100 µL/min
- recorded-conditions: column: Zorbax Extend-C18 2.1 x 50 mm; eluents: water / acetonitrile, 0.1% formic acid
Answer in s, number only, no unit symbol.

Prompt line: Fill in reported RP-LC retention time for this entry: CCOc1ccc(C(=O)N2CCC3(C2)C(=O)Nc2ccc(OC)cc23)cc1 (stereo not given)
Response line: 737

Prompt line: Supply measured RP-LC retention time of COc1c(NC(C)=O)c2ccccc2c2ccccc12 in your reply.
Response line: 830

Prompt line: # return recorded RP-LC retention time for entry Nc1c(C(=O)NCc2ccccc2Cl)nsc1C(=O)N1CCN(c2ccccn2)CC1
Response line: 715

Prompt line: Tell us which RP-LC retention time value is on record for CCc1noc(NC(C)=O)c1-c1ccc(C)c(S(=O)(=O)N2CCCCCC2)c1
Response line: 926

Prompt line: For the molecule CCOc1ccc(NC(=O)c2cc3sc(Cl)cc3n2CC)cc1 , report RP-LC retention time.
Response line: 1240

Prompt line: Give the reported value of RP-LC retention time for this record: CCOc1ccc(NC(=O)Cn2c(-c3cnccn3)nc(C)c(C)c2=O)cc1
Response line: 735

Prompt line: Give the reported RP-LC retention time for this molecule. COc1ccc(C2C(C(=O)Nc3cccc(C)n3)c3ccccc3C(=O)N2C)cc1 (stereo not given)
Response line: 791

Prompt line: For the molecule Fc1ccc(-c2nc(-c3ccc(-n4cccn4)nc3)no2)cc1F , give its measured RP-LC retention time value.
Response line: 1070

Prompt line: # return recorded RP-LC retention time for input CCC(C)NC(=O)Cn1cccc(-c2nc(-c3ccc(Br)cc3)no2)c1=O (stereo not given)
Response line: 870

Prompt line: Give a short answer stating reported RP-LC retention time for CCCn1cc(CCNC(=O)C2CC2)c2cccnc21 .
Response line: 621

* * *

- experiment-notes: gradient 5% acetonitrile 3 min, to 50% in 2 min, to 85% in 15 min, held 3 min, 100 µL/min
- recorded-conditions: column: Zorbax Extend-C18 2.1 x 50 mm; eluents: water / acetonitrile, 0.1% formic acid
Can you tell me RP-LC retention time for the items I'm about to list?
Write the number in s without appending the unit.

Prompt line: Let me know recorded RP-LC retention time for O=C(NCC1CCN(S(=O)(=O)C2CC2)CC1)Oc1ccccc1 , thanks.
Response line: 745

Prompt line: Tell me its RP-LC retention time given COCCC1CCN(C(=O)CN(C)C(=O)COc2ccccc2)CC1 as the entry.
Response line: 694

Prompt line: Supply RP-LC retention time value. Item: O=S(=O)(Cc1ccccc1)N1CCc2nc(-c3ccc(Cl)cc3)ncc2C1
Response line: 1150

Prompt line: Query RP-LC retention time for O=S(=O)(Cc1ccc(F)cc1Cl)N1CCc2nc(-c3ccc(F)cc3)ncc2C1
Response line: 1100

Prompt line: Output measured RP-LC retention time for this item: COc1ccc(C(=O)Nc2nc(-c3ccc4c(c3)NC(=O)C(C)O4)c(C)s2)cc1 (centres undefined)
Response line: 924

Prompt line: Answer with the recorded RP-LC retention time of OC(CN1CCN(c2ccccc2)CC1)c1ccc2c(c1)OCO2 (centres undefined) only.
Response line: 630

Prompt line: Check the records and state RP-LC retention time for Cc1ccccc1-c1noc(C2CC(=O)N(c3ccc(Cl)cc3)C2)n1 (centres undefined)
Response line: 1090

Prompt line: Determine its reported RP-LC retention time: CCN1C(=O)c2cccnc2Sc2cc(CNC(=O)c3cccnc3SC)ccc21
Response line: 721

Prompt line: Name the recorded RP-LC retention time of the item Cn1nc(C2CCCN(C(=O)Nc3ccc4c(c3)OCCO4)C2)n(C2CCCC2)c1=O (centres undefined) in your answer.
Response line: 718
